test_system: RSV F protein of subtype B (18537) on recombinant mKate-RSV (Respiratory syncytial virus subtype B …, UniProt P13843 26-574)
experiment_description: cell-based or functional assay
Field: Neut IC50 (µg/ml) subtype B. Provide a value for each of the binders that follow.

Recorded Neut IC50 (µg/ml) subtype B, per entry:
binder	Neut IC50 (µg/ml) subtype B
ADI-14546 (antibody, V domains shown, IgG) VH: QVQLVQSGAEVKKPGSSVKVSCTASGGSFSTNSIAWLRQTPREGLEWMGGIIPVFGAAKYAQKFQGRVTISADASTTTAYLELHNLRSEDTAVYYCARGISPRTNSDWNHNYFYYYMDVWGKGTTVTVSS VL: ETTLTQSPGTLSLSPGERATLSCRASQSIFTIYLAWYQQKPGQAPRLLIYSASNRATGIPDRFSGSGSGTDFTLTISSLEPEDFAVYYCHHYGTSPHTFGQGTRLEIK	> 10 µg/mL
ADI-14538 (antibody, V domains shown, IgG; also called Antibody Number 98) VH: EVQLVESGGGVVQPGRSLRLSCAVSGFTFSNFGMHWVRQAPGKGLEWVAAISYDGRKTFQADSVKGRFIISRDNLKNTLNLQMNSLKTEDTAVYYCAKSSRFLDWLYNMDFWGQGTTVTVSS VL: SYELTQPPSVSEAPGKTATITCGGIILGTSSVHWFQQKSGQAPVLVIYYDSDRPSGIPERFSGSHSGDTATLTISRVEVGDEADYYCQVWDNSHSQGVFGGGTQLTVL	> 10 µg/mL

Measured Neut IC50 (µg/ml) subtype B of ADI-14559 (antibody, V domains shown, IgG; also called Antibody Number 119) VH: EVQLLESGGGLVKPGGSLRLSCAASGFIFTNAWMSWVRQAPGKGLEWVGRIKRKTETGTTDYAPPVKGRFTISRDDSRSTLYLQMNSLKTEDTAVYYCTTGPPYQYYDSTGYSVVDYWGQGTLVTVSS VL: SYELTQPPSASGTPGQRVTISCSGSSSNIGSNIGINYVYWYQQLPGTAPKLLIYSTNQRPSGVPDRFSGSQSGTSASLAISGLRSEDEADYYCAAWDDSLSGPVFGGGTKLTVL : 0.031 µg/mL
